Experiment: Tanguay_ZF_120hpf_SOMI_legacy: (Legacy) Oregon State University Tanguay Lab 120 Hour Post-fertilization zebrafish Assay for Somite Malformation (AID 2283647)
Records with an inconclusive call do not appear. Activity calls are given as the source filed them. How the source made its calls: active means hit-call score of the fitted dose curve at least 0.9, where 1 is the maximum; inconclusive means response in the unintended direction; inactive means score below 0.9.
Can you answer with just one of these options? t (active), f (inactive)

As a guide, the following entries are already answered.
INSERT INTO results (compound, class) VALUES
  ('Cc1cc2c(cc1C(F)(F)F)N(C(=O)Nc1ccc(Oc3cccnc3C)nc1)CC2', 'f'),
  ('CC(C)(C)c1csc(-c2cc3cc(OCc4ccccc4CC(=O)O)ccc3o2)n1', 'f'),
  ('NC(=O)c1nc(-c2cccc(-c3cc(F)ccc3OCC(F)(F)C(F)(F)F)c2)n[nH]1', 't'),
  ('O=C1O[C@H]([C@@H](O)CO)C(O)=C1O', 'f'),
  ('C[C@]12CC[C@@H]3c4ccc(O)cc4CC[C@H]3[C@@H]1CC[C@H]2O', 'f');

Input line: Identify the outcome logged in this assay for the compound shown: CCCCCCCCN(C)CCCCCCCC
Output line: f

Input line: Identify the outcome logged in this assay for the compound shown: CN1C(=O)CC[C@H]1c1cccnc1
Output line: f

Input line: Identify the outcome logged in this assay for the compound shown: c1ccc(C[n+]2cccc3ccccc32)cc1
Output line: f

Input line: Identify the outcome logged in this assay for the compound shown: CC(=O)N1CCN(c2ccc(OC[C@H]3CO[C@](Cn4ccnc4)(c4ccc(Cl)cc4Cl)O3)cc2)CC1
Output line: f

Input line: Identify the outcome logged in this assay for the compound shown: CCCCCCCCCCCC[N+](C)(C)C
Output line: f
